Tested on: T47D
method: Cytotoxicity against human T47D cells at 10 uM after 48 hrs by SRB assay
Format: functional
particulars: read-out: GI
assayMetric: inhibition of growth at 10 µM (%)

[[record]]
compound = "C=CCn1c(C)nc2cc(Nc3nc(N4CCCC4)nc4ccccc34)ccc21"
systemundertest = "T47D"
boundoperator = "="
val = 22.6

[[record]]
compound = "O=c1[nH]cc(F)c(=O)[nH]1 [FLUOROURACIL]"
systemundertest = "T47D"
boundoperator = "="
val = 56.7

[[record]]
compound = "C=CCn1c(C)nc2ccc(Nc3nc(N4CCN(C)CC4)nc4ccccc34)cc21"
systemundertest = "T47D"
boundoperator = "="
val = 20.6

[[record]]
compound = "C=CCn1c(C)nc2ccc(Nc3nc(N4CCCC4)nc4ccccc34)cc21"
systemundertest = "T47D"
boundoperator = "<"
val = 10

[[record]]
compound = "C=CCn1c(C)nc2ccc(Nc3nc(N4CCOCC4)nc4ccccc34)cc21"
systemundertest = "T47D"
boundoperator = "="
val = 11.2

[[record]]
compound = "C=CCn1c(C)nc2cc(Nc3nc(Cl)nc4ccccc34)ccc21"
systemundertest = "T47D"
boundoperator = "="
val = 21.3

[[record]]
compound = "C=CCn1c(C)nc2ccc(Nc3nc(Cl)nc4ccccc34)cc21"
systemundertest = "T47D"
boundoperator = "="
val = 18.5

[[record]]
compound = "C=CCn1c(C)nc2cc(Nc3nc(N4CCOCC4)nc4ccccc34)ccc21"
systemundertest = "T47D"
boundoperator = "<"
val = 10


---

// reported inhibition of growth at 10 µM for each item listed
Tested on: NCI-H226
method: Cytotoxicity against human NCI-H226 cells at 10 uM after 48 hrs by SRB assay
Type: functional
particulars: NCI-H226, 48 h, read-out: GI
assayMetric: inhibition of growth at 10 µM (%)

[[record]]
chemicalsmiles = "C=CCn1c(C)nc2ccc(Nc3nc(N4CCCC4)nc4ccccc34)cc21"
assaymetric = "inhibition of growth at 10 µM"
boundoperator = "<"
val = 10

[[record]]
chemicalsmiles = "C=CCn1c(C)nc2cc(Nc3nc(N4CCOCC4)nc4ccccc34)ccc21"
assaymetric = "inhibition of growth at 10 µM"
boundoperator = "<"
val = 10

[[record]]
chemicalsmiles = "C=CCn1c(C)nc2cc(Nc3nc(Cl)nc4ccccc34)ccc21"
assaymetric = "inhibition of growth at 10 µM"
boundoperator = "="
val = 17.8

[[record]]
chemicalsmiles = "O=c1[nH]cc(F)c(=O)[nH]1"
assaymetric = "inhibition of growth at 10 µM"
boundoperator = "="
val = 69.5

[[record]]
chemicalsmiles = "C=CCn1c(C)nc2ccc(Nc3nc(Cl)nc4ccccc34)cc21"
assaymetric = "inhibition of growth at 10 µM"
boundoperator = "<"
val = 10

[[record]]
chemicalsmiles = "C=CCn1c(C)nc2cc(Nc3nc(N4CCCC4)nc4ccccc34)ccc21"
assaymetric = "inhibition of growth at 10 µM"
boundoperator = "="
val = 22

[[record]]
chemicalsmiles = "C=CCn1c(C)nc2ccc(Nc3nc(N4CCOCC4)nc4ccccc34)cc21"
assaymetric = "inhibition of growth at 10 µM"
boundoperator = "<"
val = 10

[[record]]
chemicalsmiles = "C=CCn1c(C)nc2ccc(Nc3nc(N4CCN(C)CC4)nc4ccccc34)cc21"
assaymetric = "inhibition of growth at 10 µM"
boundoperator = "="
val = 13.6


// data source = ChEMBL document CHEMBL2380212
